Tested on: Clostridium butyricum
Assay: Antibacterial activity against Clostridium butyricum by CLSI M11-A6 agar dilution method
Format: functional
propertyLabel: MIC90 (µg/mL)

- givenSmiles: "Cc1ncc([N+](=O)[O-])n1CCO"
  targetUnderTest: "Clostridium butyricum"
  valueObserved: 1

###

Test system: Fusobacterium varium
Experiment: Antibacterial activity against Fusobacterium varium by CLSI M11-A6 agar dilution method
Type: functional
propertyLabel: MIC50 (µg/mL)

- compound: "CC(=O)NC[C@H]1CN(c2ccc(N3CCOCC3)c(F)c2)C(=O)O1 [LINEZOLID]"
  propertyLabel: "MIC50"
  measureUnit: "µg/mL"
  valueObserved: 1

###

System: Clostridium bartlettii
Assay: Antibacterial activity against Clostridium bartlettii by CLSI M11-A6 agar dilution method
Assay type: functional
Conditions: Intestinibacter bartlettii

- compound: "Cc1ncc([N+](=O)[O-])n1CCO [METRONIDAZOLE]"
  measureUnit: "µg/mL"
  modifier: "="
  MIC50: 0.25
- compound: "CC(=O)NC[C@H]1CN(c2ccc(N3CCOCC3)c(F)c2)C(=O)O1 [LINEZOLID]"
  measureUnit: "µg/mL"
  modifier: "="
  MIC50: 2
- compound: "CN[C@H](CC(C)C)C(=O)N[C@H]1C(=O)N[C@@H](CC(N)=O)C(=O)N[C@H]2C(=O)N[C@H]3C(=O)N[C@H](C(=O)N[C@H](C(=O)O)c4cc(O)cc(O)c4-c4cc3ccc4O)[C@H](O)c3ccc(c(Cl)c3)Oc3cc2cc(c3O[C@@H]2O[C@H](CO)[C@@H](O)[C@H](O)[C@H]2O[C@H]2C[C@](C)(N)[C@H](O)[C@H](C)O2)Oc2ccc(cc2Cl)[C@H]1O [VANCOMYCIN]"
  measureUnit: "µg/mL"
  modifier: "="
  MIC50: 1
- compound: "CCCCCCCCCC(=O)N[C@@H](Cc1c[nH]c2ccccc12)C(=O)N[C@H](CC(N)=O)C(=O)N[C@@H](CC(=O)O)C(=O)N[C@@H]1C(=O)NCC(=O)N[C@@H](CCCN)C(=O)N[C@@H](CC(=O)O)C(=O)N[C@H](C)C(=O)N[C@@H](CC(=O)O)C(=O)NCC(=O)N[C@H](CO)C(=O)N[C@@H]([C@H](C)CC(=O)O)C(=O)N[C@@H](CC(=O)c2ccccc2N)C(=O)O[C@@H]1C"
  measureUnit: "µg/mL"
  modifier: "="
  MIC50: 1
- compound: "CCCCCCCCCCNCCN[C@@]1(C)C[C@H](O[C@H]2[C@H](Oc3c4cc5cc3Oc3ccc(cc3Cl)[C@@H](O)[C@@H](NC(=O)[C@@H](CC(C)C)NC)C(=O)N[C@@H](CC(N)=O)C(=O)N[C@H]5C(=O)N[C@H]3C(=O)N[C@H](C(=O)N[C@H](C(=O)O)c5cc(O)c(CNCP(=O)(O)O)c(O)c5-c5cc3ccc5O)[C@H](O)c3ccc(c(Cl)c3)O4)O[C@H](CO)[C@@H](O)[C@@H]2O)O[C@@H](C)[C@H]1O [TELAVANCIN]"
  measureUnit: "µg/mL"
  modifier: "≤"
  MIC50: 0.12

###

System: Peptoniphilus asaccharolyticus
Experiment: Antibacterial activity against Peptoniphilus asaccharolyticus by CLSI M11-A6 agar dilution method
Assay type: functional

- compound: "Cc1ncc([N+](=O)[O-])n1CCO [METRONIDAZOLE]"
  targetUnderTest: "Peptoniphilus asaccharolyticus"
  MIC90, µg/mL: 2
- compound: "CN[C@H](CC(C)C)C(=O)N[C@H]1C(=O)N[C@@H](CC(N)=O)C(=O)N[C@H]2C(=O)N[C@H]3C(=O)N[C@H](C(=O)N[C@H](C(=O)O)c4cc(O)cc(O)c4-c4cc3ccc4O)[C@H](O)c3ccc(c(Cl)c3)Oc3cc2cc(c3O[C@@H]2O[C@H](CO)[C@@H](O)[C@H](O)[C@H]2O[C@H]2C[C@](C)(N)[C@H](O)[C@H](C)O2)Oc2ccc(cc2Cl)[C@H]1O [VANCOMYCIN]"
  targetUnderTest: "Peptoniphilus asaccharolyticus"
  MIC90, µg/mL: 1

###

Test system: Bilophila wadsworthia
Test: Antibacterial activity against Bilophila wadsworthia by CLSI M11-A6 agar dilution method
Type: functional
Entries and their MIC90 values follow.

- compound: "CCCCCCCCCCNCCN[C@@]1(C)C[C@H](O[C@H]2[C@H](Oc3c4cc5cc3Oc3ccc(cc3Cl)[C@@H](O)[C@@H](NC(=O)[C@@H](CC(C)C)NC)C(=O)N[C@@H](CC(N)=O)C(=O)N[C@H]5C(=O)N[C@H]3C(=O)N[C@H](C(=O)N[C@H](C(=O)O)c5cc(O)c(CNCP(=O)(O)O)c(O)c5-c5cc3ccc5O)[C@H](O)c3ccc(c(Cl)c3)O4)O[C@H](CO)[C@@H](O)[C@@H]2O)O[C@@H](C)[C@H]1O [TELAVANCIN]"
  MIC90: "> 64 µg/mL"
- compound: "CN[C@H](CC(C)C)C(=O)N[C@H]1C(=O)N[C@@H](CC(N)=O)C(=O)N[C@H]2C(=O)N[C@H]3C(=O)N[C@H](C(=O)N[C@H](C(=O)O)c4cc(O)cc(O)c4-c4cc3ccc4O)[C@H](O)c3ccc(c(Cl)c3)Oc3cc2cc(c3O[C@@H]2O[C@H](CO)[C@@H](O)[C@H](O)[C@H]2O[C@H]2C[C@](C)(N)[C@H](O)[C@H](C)O2)Oc2ccc(cc2Cl)[C@H]1O [VANCOMYCIN]"
  MIC90: "> 128 µg/mL"
- compound: "CCCCCCCCCC(=O)N[C@@H](Cc1c[nH]c2ccccc12)C(=O)N[C@H](CC(N)=O)C(=O)N[C@@H](CC(=O)O)C(=O)N[C@@H]1C(=O)NCC(=O)N[C@@H](CCCN)C(=O)N[C@@H](CC(=O)O)C(=O)N[C@H](C)C(=O)N[C@@H](CC(=O)O)C(=O)NCC(=O)N[C@H](CO)C(=O)N[C@@H]([C@H](C)CC(=O)O)C(=O)N[C@@H](CC(=O)c2ccccc2N)C(=O)O[C@@H]1C"
  MIC90: "> 128 µg/mL"

###

Tested on: Ruminococcus albus
Assay: Antibacterial activity against Ruminococcus albus by CLSI M11-A6 agar dilution method
Format: functional
Details: Hominimerdicola alba

- compound: "CN[C@H](CC(C)C)C(=O)N[C@H]1C(=O)N[C@@H](CC(N)=O)C(=O)N[C@H]2C(=O)N[C@H]3C(=O)N[C@H](C(=O)N[C@H](C(=O)O)c4cc(O)cc(O)c4-c4cc3ccc4O)[C@H](O)c3ccc(c(Cl)c3)Oc3cc2cc(c3O[C@@H]2O[C@H](CO)[C@@H](O)[C@H](O)[C@H]2O[C@H]2C[C@](C)(N)[C@H](O)[C@H](C)O2)Oc2ccc(cc2Cl)[C@H]1O [VANCOMYCIN]"
  MIC90: "1 µg/mL"
- compound: "CCCCCCCCCCNCCN[C@@]1(C)C[C@H](O[C@H]2[C@H](Oc3c4cc5cc3Oc3ccc(cc3Cl)[C@@H](O)[C@@H](NC(=O)[C@@H](CC(C)C)NC)C(=O)N[C@@H](CC(N)=O)C(=O)N[C@H]5C(=O)N[C@H]3C(=O)N[C@H](C(=O)N[C@H](C(=O)O)c5cc(O)c(CNCP(=O)(O)O)c(O)c5-c5cc3ccc5O)[C@H](O)c3ccc(c(Cl)c3)O4)O[C@H](CO)[C@@H](O)[C@@H]2O)O[C@@H](C)[C@H]1O [TELAVANCIN]"
  MIC90: "≤ 0.12 µg/mL"

###

Tested on: Sutterella wadsworthensis
Experiment: Antibacterial activity against Sutterella wadsworthensis by CLSI M11-A6 agar dilution method
Format: functional
Entries and their MIC values follow.

- givenSmiles: "CCCCCCCCCC(=O)N[C@@H](Cc1c[nH]c2ccccc12)C(=O)N[C@H](CC(N)=O)C(=O)N[C@@H](CC(=O)O)C(=O)N[C@@H]1C(=O)NCC(=O)N[C@@H](CCCN)C(=O)N[C@@H](CC(=O)O)C(=O)N[C@H](C)C(=O)N[C@@H](CC(=O)O)C(=O)NCC(=O)N[C@H](CO)C(=O)N[C@@H]([C@H](C)CC(=O)O)C(=O)N[C@@H](CC(=O)c2ccccc2N)C(=O)O[C@@H]1C"
  MIC: "> 128 µg/mL"
- givenSmiles: "CCCCCCCCCCNCCN[C@@]1(C)C[C@H](O[C@H]2[C@H](Oc3c4cc5cc3Oc3ccc(cc3Cl)[C@@H](O)[C@@H](NC(=O)[C@@H](CC(C)C)NC)C(=O)N[C@@H](CC(N)=O)C(=O)N[C@H]5C(=O)N[C@H]3C(=O)N[C@H](C(=O)N[C@H](C(=O)O)c5cc(O)c(CNCP(=O)(O)O)c(O)c5-c5cc3ccc5O)[C@H](O)c3ccc(c(Cl)c3)O4)O[C@H](CO)[C@@H](O)[C@@H]2O)O[C@@H](C)[C@H]1O"
  MIC: "> 64 µg/mL"
- givenSmiles: "CC(=O)NC[C@H]1CN(c2ccc(N3CCOCC3)c(F)c2)C(=O)O1"
  MIC: "> 128 µg/mL"
- givenSmiles: "CN[C@H](CC(C)C)C(=O)N[C@H]1C(=O)N[C@@H](CC(N)=O)C(=O)N[C@H]2C(=O)N[C@H]3C(=O)N[C@H](C(=O)N[C@H](C(=O)O)c4cc(O)cc(O)c4-c4cc3ccc4O)[C@H](O)c3ccc(c(Cl)c3)Oc3cc2cc(c3O[C@@H]2O[C@H](CO)[C@@H](O)[C@H](O)[C@H]2O[C@H]2C[C@](C)(N)[C@H](O)[C@H](C)O2)Oc2ccc(cc2Cl)[C@H]1O"
  MIC: "> 128 µg/mL"
